Form field: binding signal (one value per entry).
biological target: TDP-43 (Homo sapiens, UniProt Q13148 1-414); assay: RNA Bind-n-Seq with designed 260-mer pool; 25 mM Tris-HCl, 150 mM KCl, 3 mM MgCl2, BSA (printed 500 mg/mL), 20 units/mL SUPERase IN; pH not stated; 500 nM RNA pool, 1 h, 4 C; TDP-43 5, 50, 500 nM; high values mean tight binding; conditions: protein: recombinant; tags: SBP (GST cleaved off with PreScission; pGEX-GST-SBP)
Sequence (Q13148 whole entry): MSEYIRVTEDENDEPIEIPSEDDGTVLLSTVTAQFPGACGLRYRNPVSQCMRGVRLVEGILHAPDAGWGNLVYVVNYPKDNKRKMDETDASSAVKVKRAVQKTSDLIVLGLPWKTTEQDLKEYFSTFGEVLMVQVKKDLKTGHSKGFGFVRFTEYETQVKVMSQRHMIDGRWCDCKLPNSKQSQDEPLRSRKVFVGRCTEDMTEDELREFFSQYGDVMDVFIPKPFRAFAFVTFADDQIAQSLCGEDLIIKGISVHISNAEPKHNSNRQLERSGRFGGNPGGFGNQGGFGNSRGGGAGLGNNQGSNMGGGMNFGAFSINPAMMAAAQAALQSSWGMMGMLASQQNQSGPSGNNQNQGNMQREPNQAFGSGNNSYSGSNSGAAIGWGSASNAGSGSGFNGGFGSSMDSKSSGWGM
Over roughly 9,900 sequences, “r (bound/input frequency ratio)” has its median near 0.7; the highest 2% begin near 6.5. For the sample, the highest values were picked, then their nearest neighbours and some sequences at random.

Task: What measured binding signal goes with ENSMUSG00000061578.853|Ksr2 (ssRNA) RNA: GGGAGUUCUACAGUCCGACGAUCGCUUCGAUAUCCGCAUGCUAAAGCAAAGAGCAAUACAGGAAAAGGUCAGGGGUGAGAUGUGUCAUUGCCACUUCCUCCAGCUAGGACCUUUGAGCAUCACAUUGUGAAGCCAUCCAGGGACUUGGGGGUUAGGUCAGAGGUAUCAAUACAUCUCCGGAAACAUCGUCACAGAUACCUAGAGGUACUUCAUUGAUCCCUUGAAAAGCAUGUCUUAAUUCUGUUAAGAUGUCAAUCAAGAUUACACAUCUCACUGCUUCACAGGCCAUCAGGGCCCCAUUCUCUCUUGCGGUCGCACUAGUGUGGAAUUCUCGGGUGUCAAGG ?
Result: 0.223 R (bound/input frequency ratio)

As a next step, examine the binder that follows.
Task: Return reported binding signal; argument: ENSMUSG00000034801.222|Sos2 (ssRNA) RNA: GGGAGUUCUACAGUCCGACGAUCGCUUCGAUAUCCGCAUGCUAUGUAAGUCUGGAACAAAAGUGUCUUAUGGCAUAAGAACCAACUGCCAUUGUCAAACCUAUUAACUGUCUUUAAUCUCGUGUUAACUGAAAUUUUUGAAAAGUUUUUCCAGAUUAGUAAUAUUUAAACAGAAAAUACUUUAAAAAGCUUUAUUAAAUUUUUUAAUCAGGAUAAAGCUUUGCCAUUUGGAUACUAUCAUUCAAAGUGAUCAAGGUAUGUAUGUUAUGCUGAUAGUGCAGUAGCAGCCAUUGUAAAGUAGCCACUCUUGCGGUCGCACUAGUGUGGAAUUCUCGGGUGUCAAGG
Result: 0.0419 R (bound/input frequency ratio)
